These measurements were taken from ChEMBL document CHEMBL1909569.

Listed molecules paired with reported logIC50
target-desc: DNA-directed RNA polymerase subunit beta (Mycobacterium tuberculosis)
Sequence (whole entry): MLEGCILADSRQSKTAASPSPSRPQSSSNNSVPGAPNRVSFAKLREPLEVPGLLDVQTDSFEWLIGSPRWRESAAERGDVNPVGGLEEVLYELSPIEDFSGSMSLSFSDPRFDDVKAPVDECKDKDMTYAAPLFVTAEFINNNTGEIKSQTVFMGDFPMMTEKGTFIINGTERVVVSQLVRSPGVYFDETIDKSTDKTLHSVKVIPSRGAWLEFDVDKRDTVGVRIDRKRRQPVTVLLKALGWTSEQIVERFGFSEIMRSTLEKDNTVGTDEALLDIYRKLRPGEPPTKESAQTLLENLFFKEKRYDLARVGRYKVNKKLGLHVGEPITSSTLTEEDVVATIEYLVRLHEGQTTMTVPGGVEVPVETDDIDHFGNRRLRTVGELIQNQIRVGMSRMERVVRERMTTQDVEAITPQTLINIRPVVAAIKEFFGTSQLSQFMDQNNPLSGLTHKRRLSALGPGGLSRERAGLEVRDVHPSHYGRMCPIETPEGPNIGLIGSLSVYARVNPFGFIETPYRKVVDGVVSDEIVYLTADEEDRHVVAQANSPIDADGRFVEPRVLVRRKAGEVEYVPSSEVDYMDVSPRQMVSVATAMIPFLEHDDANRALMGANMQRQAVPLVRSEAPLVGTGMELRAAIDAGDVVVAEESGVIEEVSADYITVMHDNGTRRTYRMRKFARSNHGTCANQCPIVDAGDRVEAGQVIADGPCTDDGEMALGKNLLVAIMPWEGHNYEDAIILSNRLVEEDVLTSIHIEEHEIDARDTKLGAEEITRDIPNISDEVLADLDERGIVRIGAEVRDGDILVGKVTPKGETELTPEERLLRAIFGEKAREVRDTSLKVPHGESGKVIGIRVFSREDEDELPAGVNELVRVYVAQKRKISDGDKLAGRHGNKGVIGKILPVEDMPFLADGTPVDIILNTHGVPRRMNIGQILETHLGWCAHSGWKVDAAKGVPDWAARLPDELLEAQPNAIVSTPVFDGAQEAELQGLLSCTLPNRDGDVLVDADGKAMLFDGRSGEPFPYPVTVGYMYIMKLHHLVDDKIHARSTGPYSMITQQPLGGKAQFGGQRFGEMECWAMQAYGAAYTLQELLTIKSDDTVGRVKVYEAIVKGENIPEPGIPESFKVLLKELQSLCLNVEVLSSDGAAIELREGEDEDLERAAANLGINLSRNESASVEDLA
run-description: Inhibition of wild type Mycobacterium tuberculosis RNA polymerase after 10 mins using ribo green staining by rolling circle transcription assay
Set-up: unit not given here

As a guide, the following entries are already answered.
CO[C@H]1/C=C/O[C@@]2(C)Oc3c(C)c(SC)c4c(c3C2=O)C(=O)C=C(NC(=O)/C(C)=C\C=C\[C@H](C)[C@H](O)[C@@H](C)[C@@H](O)[C@@H](C)[C@H](OC(C)=O)[C@@H]1C)C4=O = -1.82
CO[C@H]1/C=C/O[C@@]2(C)Oc3c(c4c5c(nn(CCO)c5c3C)C(=C(/C=N/N3CCN(C)CC3)C4=O)NC(=O)/C(C)=C\C=C\[C@H](C)[C@H](O)[C@@H](C)[C@@H](O)[C@@H](C)[C@H](OC(C)=O)[C@@H]1C)C2=O = -0.856

Q. Name the reported logIC50 value associated with the molecule `CO[C@H]1/C=C/O[C@@]2(C)Oc3c(C)c(NC4CCCCCC4)c4c(c3C2=O)C(=O)C=C(NC(=O)/C(C)=C\C=C\[C@H](C)[C@H](O)[C@@H](C)[C@@H](O)[C@@H](C)[C@H](OC(C)=O)[C@@H]1C)C4=O`
A. 1.19

----------
Listed compounds paired with reported MIC90
System: Mycobacterium tuberculosis
run-description: Antimicrobial activity against replicating Mycobacterium tuberculosis after 8 days by micro plate alamar blue assay
Type: functional
test-parameters: 192 h
Enter your answer as a number in µM; do not include the unit.

As a guide, the following entries are already answered.
CO[C@H]1/C=C/O[C@@]2(C)Oc3c(C)c(SC)c4c(c3C2=O)C(=O)C=C(NC(=O)/C(C)=C\C=C\[C@H](C)[C@H](O)[C@@H](C)[C@@H](O)[C@@H](C)[C@H](OC(C)=O)[C@@H]1C)C4=O = 2
CNc1c(C)c2c3c4c1C(=O)C(=C(/C=N/N1CCN(C)CC1)C4=O)NC(=O)/C(C)=C\C=C\[C@H](C)[C@H](O)[C@@H](C)[C@@H](O)[C@@H](C)[C@H](OC(C)=O)[C@H](C)[C@@H](OC)/C=C/O[C@@](C)(O2)C3=O = 3.64
CCNc1c(C)c2c3c4c1C(=O)C(=CC4=O)NC(=O)/C(C)=C\C=C\[C@H](C)[C@H](O)[C@@H](C)[C@@H](O)[C@@H](C)[C@H](OC(C)=O)[C@H](C)[C@@H](OC)/C=C/O[C@@](C)(O2)C3=O = 5.5

Q. Param readout = MIC90; param system = Mycobacterium tuberculosis; param query = `CO[C@H]1/C=C/O[C@@]2(C)Oc3c(C)c(NC4CCCCCC4)c4c(O)c(c(/C=N/N5CCN(C)CC5)c(O)c4c3C2=O)NC(=O)/C(C)=C\C=C\[C@H](C)[C@H](O)[C@@H](C)[C@@H](O)[C@@H](C)[C@H](OC(C)=O)[C@@H]1C` ; response: value
A. 3.8

----------
Listed compounds paired with reported MIC90
Test system: Mycobacterium tuberculosis
run-description: Antimicrobial activity against replicating Mycobacterium tuberculosis after 8 days by micro plate alamar blue assay
Type: functional
test-parameters: 192 h

As a guide, the following entries are already answered.
CO[C@H]1/C=C/O[C@@]2(C)Oc3c(C)c(OS(=O)(=O)c4ccc(C)cc4)c4c(c3C2=O)C(=O)C=C(NC(=O)/C(C)=C\C=C\[C@H](C)[C@H](O)[C@@H](C)[C@@H](O)[C@@H](C)[C@H](OC(C)=O)[C@@H]1C)C4=O = 0.2 µM
CO[C@H]1/C=C/O[C@@]2(C)Oc3c(C)c(NCCO)c4c(c3C2=O)C(=O)C(/C=N/N2CCN(C)CC2)=C(NC(=O)/C(C)=C\C=C\[C@H](C)[C@H](O)[C@@H](C)[C@@H](O)[C@@H](C)[C@H](OC(C)=O)[C@@H]1C)C4=O = > 4.6 µM
O=[N+]([O-])c1cn2c(n1)OC[C@@H](OCc1ccc(OC(F)(F)F)cc1)C2 = 0.66 µM
CO[C@H]1/C=C/O[C@@]2(C)Oc3c(C)c(NC4CCCCCC4)c4c(c3C2=O)C(=O)C(/C=N/N2CCN(C)CC2)=C(NC(=O)/C(C)=C\C=C\[C@H](C)[C@H](O)[C@@H](C)[C@@H](O)[C@@H](C)[C@H](OC(C)=O)[C@@H]1C)C4=O = 3.9 µM

Here is another compound to look at.
Q. Name the reported MIC90 value associated with the compound `C/C=C/Nc1c(C)c2c3c4c1C(=O)C(=CC4=O)NC(=O)/C(C)=C\C=C\[C@H](C)[C@H](O)[C@@H](C)[C@@H](O)[C@@H](C)[C@H](OC(C)=O)[C@H](C)[C@@H](OC)/C=C/O[C@@](C)(O2)C3=O`
A. 5.2 µM

----------
target-desc: DNA-directed RNA polymerase subunit beta (Mycobacterium tuberculosis) (UniProt P9WGY9)
run-description: Inhibition of wild type Mycobacterium tuberculosis RNA polymerase after 10 mins using ribo green staining by rolling circle transcription assay
Parameters: unit not given here
endpoint-name: logIC50
Quick one: just the number, no unit, thanks!

Q. Name the reported logIC50 value associated with the compound CO[C@H]1/C=C/O[C@@]2(C)Oc3c(C)c(O)c4c(c3C2=O)C(=O)C(/C=N/N2CCN(C)CC2)=C(NC(=O)/C(C)=C\C=C\[C@H](C)[C@H](O)[C@@H](C)[C@@H](O)[C@@H](C)[C@H](OC(C)=O)[C@@H]1C)C4=O [RIFAMPIN S]
A. -1.88

----------
target-desc: DNA-directed RNA polymerase subunit beta (Mycobacterium tuberculosis, UniProt P9WGY9)
run-description: Inhibition of wild type Mycobacterium tuberculosis RNA polymerase after 10 mins using ribo green staining by rolling circle transcription assay
endpoint-name: pIC50
Scale note: pIC50 = -log10(concentration in M).

CO[C@H]1/C=C/O[C@@]2(C)Oc3c(C)c(SC)c4c(c3C2=O)C(=O)C=C(NC(=O)/C(C)=C\C=C\[C@H](C)[C@H](O)[C@@H](C)[C@@H](O)[C@@H](C)[C@H](OC(C)=O)[C@@H]1C)C4=O = 7.82
CO[C@H]1/C=C/O[C@@]2(C)Oc3c(C)c(NC4CCCCCC4)c4c(c3C2=O)C(=O)C=C(NC(=O)/C(C)=C\C=C\[C@H](C)[C@H](O)[C@@H](C)[C@@H](O)[C@@H](C)[C@H](OC(C)=O)[C@@H]1C)C4=O = 4.81

Here is another compound to look at.
Q. Name the reported pIC50 value associated with the compound `CO[C@H]1/C=C/O[C@@]2(C)Oc3c(C)c(OS(=O)(=O)c4ccc(C)cc4)c4c(c3C2=O)C(=O)C=C(NC(=O)/C(C)=C\C=C\[C@H](C)[C@H](O)[C@@H](C)[C@@H](O)[C@@H](C)[C@H](OC(C)=O)[C@@H]1C)C4=O`
A. 7.68
